target-desc: T1, AAV8 (adeno-associated virus 8, Assembled 60-mer capsid of VP1/VP2/VP3 (nested products of one cap gene), amine-coupled to a CM5 chip; the letters give one VP1 subunit only.)
T1 construct: also called adeno-associated virus serotype 8
T1 chain: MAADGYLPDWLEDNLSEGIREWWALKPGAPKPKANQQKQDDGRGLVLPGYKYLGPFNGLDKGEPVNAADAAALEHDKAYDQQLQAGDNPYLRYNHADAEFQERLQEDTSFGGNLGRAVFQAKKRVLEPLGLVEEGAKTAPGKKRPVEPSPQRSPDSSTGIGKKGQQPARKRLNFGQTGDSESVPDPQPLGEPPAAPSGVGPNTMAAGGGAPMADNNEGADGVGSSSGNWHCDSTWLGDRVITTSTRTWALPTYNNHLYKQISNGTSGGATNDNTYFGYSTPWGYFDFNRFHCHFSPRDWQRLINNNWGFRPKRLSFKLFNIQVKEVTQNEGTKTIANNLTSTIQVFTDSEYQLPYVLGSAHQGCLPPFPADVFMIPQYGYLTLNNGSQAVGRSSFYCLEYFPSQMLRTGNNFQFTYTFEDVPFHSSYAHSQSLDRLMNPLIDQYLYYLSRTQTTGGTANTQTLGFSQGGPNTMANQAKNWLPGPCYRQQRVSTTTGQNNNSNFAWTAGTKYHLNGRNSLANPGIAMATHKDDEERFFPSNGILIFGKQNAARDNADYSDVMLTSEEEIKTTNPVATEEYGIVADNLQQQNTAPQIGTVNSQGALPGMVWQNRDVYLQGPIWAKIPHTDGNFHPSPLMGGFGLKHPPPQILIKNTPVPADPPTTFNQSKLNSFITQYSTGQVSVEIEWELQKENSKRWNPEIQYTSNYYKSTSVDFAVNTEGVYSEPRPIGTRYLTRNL
method-notes: SPR, AAV amine-coupled to CM5 chip
Assign pKd to each entry below.
Schema: pKd number; meaning minus log10 of the concentration expressed in molar units.

Reported pKd of A4-C8 (bispecific antibody) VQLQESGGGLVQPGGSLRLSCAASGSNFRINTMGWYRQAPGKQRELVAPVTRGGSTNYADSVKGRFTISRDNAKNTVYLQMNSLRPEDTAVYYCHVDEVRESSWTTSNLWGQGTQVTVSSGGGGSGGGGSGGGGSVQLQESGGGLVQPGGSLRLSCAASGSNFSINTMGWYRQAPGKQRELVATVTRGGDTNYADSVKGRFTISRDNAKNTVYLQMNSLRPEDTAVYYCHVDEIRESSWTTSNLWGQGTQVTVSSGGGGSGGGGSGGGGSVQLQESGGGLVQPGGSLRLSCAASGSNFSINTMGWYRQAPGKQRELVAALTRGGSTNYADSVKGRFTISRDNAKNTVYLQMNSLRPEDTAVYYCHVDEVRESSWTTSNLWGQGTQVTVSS : 8.55

Reported pKd of A4-C5 (bispecific antibody) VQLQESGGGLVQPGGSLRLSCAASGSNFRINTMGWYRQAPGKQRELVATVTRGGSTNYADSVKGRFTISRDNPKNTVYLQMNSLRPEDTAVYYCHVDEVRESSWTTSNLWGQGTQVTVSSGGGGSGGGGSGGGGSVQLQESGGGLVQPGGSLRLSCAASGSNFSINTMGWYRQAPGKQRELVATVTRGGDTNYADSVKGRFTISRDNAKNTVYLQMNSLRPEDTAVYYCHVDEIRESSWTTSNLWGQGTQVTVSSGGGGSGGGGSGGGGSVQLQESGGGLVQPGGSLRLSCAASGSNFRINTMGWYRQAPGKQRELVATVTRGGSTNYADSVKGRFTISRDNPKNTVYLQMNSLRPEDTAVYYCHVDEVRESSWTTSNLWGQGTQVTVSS : 8.30
